# Test system: naïve human CD8 T cells
# test-details: Human CD8 T cells IFN-γ assay;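 note: Naïve human CD8 T cells stimulated with plate-bound anti-CD3 and soluble anti-CD28, IFN-γ in supernatant quantified by AlphaLISA and converted to pg/mL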
# Assay type: cell-based
# reported-conditions: naïve human CD8 T cells, anti-CD3 plus anti-CD28; 3 μM reference compound = 100% activation; read-out: HuCD8 INFG Normalized EC50
For each of the compounds below, state its pEC50.
// scale note: pEC50 = -log10(conc_M); give the bare number

// pEC50 value for C[C@@H]1CN(c2cc(=O)n(C)c3ccc(C#N)nc23)[C@@H](C)CN1C(c1ccc(F)cc1)c1nc(-c2ccc(F)cc2)no1 (single isomer, unassigned) [Example 742] : 8.82

// pEC50 value for C[C@@H]1CN(c2cc(=O)n(C)c3ccc(C#N)nc23)[C@@H](C)CN1C(c1ccc(F)cc1)c1nc(-c2ccc(F)cc2)no1 (single isomer, unassigned) [Example 741] : 8.43

// pEC50 value for C[C@@H]1CN(c2c(C#N)c(=O)n(C)c3ccc(C#N)nc23)CCN1C(c1ccc(F)cc1)c1ccc(Cl)cn1 (stereo partly shown) [Example 932] : 7.28

// pEC50 value for C[C@@H]1CN(c2c(C#N)c(=O)n(C)c3ccc(C#N)nc23)CCN1C(c1ccc(F)cc1)c1ccc(Cl)cn1 (stereo partly shown) [Example 933] : 6.46

---

# experimental-system: human DGKζ (Homo sapiens, UniProt Q13574)
# Construct: TVMV protease cleavage site (C); Hexa-His (C); made in house; host or cells: Sf9 insect cells (baculovirus, Bac-to-Bac)
# Sequence (Q13574 with tags, fused parts or gaps isoform Q13574-4): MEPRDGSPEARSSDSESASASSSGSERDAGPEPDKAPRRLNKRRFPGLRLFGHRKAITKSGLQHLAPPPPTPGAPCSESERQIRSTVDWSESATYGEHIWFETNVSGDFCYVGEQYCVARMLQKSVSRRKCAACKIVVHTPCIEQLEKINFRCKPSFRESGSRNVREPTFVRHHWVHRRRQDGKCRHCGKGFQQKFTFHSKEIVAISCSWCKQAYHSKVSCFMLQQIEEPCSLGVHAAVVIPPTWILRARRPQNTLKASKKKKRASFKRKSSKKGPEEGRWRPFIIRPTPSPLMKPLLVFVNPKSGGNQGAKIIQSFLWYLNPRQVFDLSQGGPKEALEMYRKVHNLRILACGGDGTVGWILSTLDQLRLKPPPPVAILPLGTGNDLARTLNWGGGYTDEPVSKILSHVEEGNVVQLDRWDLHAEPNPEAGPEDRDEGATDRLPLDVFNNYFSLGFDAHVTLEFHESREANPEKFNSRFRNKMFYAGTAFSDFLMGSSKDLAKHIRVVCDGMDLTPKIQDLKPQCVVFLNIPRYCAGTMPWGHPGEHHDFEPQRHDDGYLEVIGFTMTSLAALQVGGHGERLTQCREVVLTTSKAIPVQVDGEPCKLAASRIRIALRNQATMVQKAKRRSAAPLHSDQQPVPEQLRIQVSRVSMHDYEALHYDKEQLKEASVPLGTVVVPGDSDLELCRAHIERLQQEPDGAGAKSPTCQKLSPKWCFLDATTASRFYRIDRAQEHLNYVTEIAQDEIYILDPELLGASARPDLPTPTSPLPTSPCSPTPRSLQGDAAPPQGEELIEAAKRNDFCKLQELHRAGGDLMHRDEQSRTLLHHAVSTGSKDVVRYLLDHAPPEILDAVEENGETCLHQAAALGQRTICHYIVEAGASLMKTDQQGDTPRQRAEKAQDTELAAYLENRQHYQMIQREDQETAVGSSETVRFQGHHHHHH
# test-details: DGKζ LIPGLO assay (extruded liposome substrate), in vitro DGK inhibition
# Format: biochemical
# reported-conditions: liposome (LIPGLO) assay; read-out: DGKz LIPGLO IC50
measured-metric: pIC50
// scale note: pIC50 = -log10(conc_M); give the bare number

// pIC50 value for COCCOc1cc(C(C)N2C[C@H](C)N(c3cc(=O)n(C)c4ccc(C#N)nc34)C[C@H]2C)ccc1OC (single isomer, unassigned) [Example 1302] : 5.18

// pIC50 value for C[C@@H]1CN(c2cc(=O)n(C)c3ccc(C#N)nc23)[C@@H](C)CN1C(c1ccc(F)cc1)c1ccc(P(C)(C)=O)cc1 (single isomer, unassigned) [Example 1292] : 5.39

// pIC50 value for COCc1cc(C(C)N2C[C@H](C)N(c3cc(=O)n(C)c4ccc(C#N)nc34)C[C@H]2C)ccc1F (single isomer, unassigned) [Example 1316] : 7.74

// pIC50 value for C[C@@H]1CN(c2cc(=O)n(C)c3ccc(C#N)nc23)[C@@H](C)CN1C(c1ccc(F)cc1)c1cccc(F)n1 (single isomer, unassigned) : 6.28

// pIC50 value for CC[C@H]1CN(C(C)c2ccc(F)cc2F)[C@H](C)CN1c1cc(=O)n(C)c2ccc(C#N)nc12 (single isomer, unassigned) [Example 1138] : 5.85

// pIC50 value for CC(C)Oc1ccc(C(c2cccc(F)c2)N2C[C@H](C)N(c3cc(=O)n(C)c4ccc(C#N)nc34)C[C@H]2C)nc1 (stereo partly drawn) [Example 691] : 6.25

// pIC50 value for C[C@@H]1CN(c2cc(=O)n(C)c3ccc(C#N)nc23)[C@@H](C)CN1C(c1ccc(F)cc1)c1cccc(C(F)(F)F)n1 (stereo partly drawn) [Example 678] : 5.82

// pIC50 value for CC(c1nc(C2CC2)cs1)N1C[C@H](C)N(c2cc(=O)n(C)c3ccc(C#N)nc23)C[C@H]1C (single isomer, unassigned) [Example 646] : 5.57

// pIC50 value for `C[C@@H]1CN(c2c(C#N)c(=O)n(C)c3ccc(Br)nc23)CCN1C(c1ccc(Cl)cc1)c1ccc(Cl)cc1` : 5.08

// pIC50 value for `C[C@@H]1CN(c2cc(=O)n(C)c3ccc(C#N)nc23)[C@@H](C)CN1Cc1ccccc1O` : 5.96

// pIC50 value for CC[C@@H]1CN(c2cc(=O)n(C)c3ccc(C#N)nc23)[C@@H](C)CN1C(c1ccc(F)cc1)c1ccon1 (single isomer, unassigned) [Example 1114] : 6.40

// pIC50 value for `CC(C)[C@@H]1CN(C(c2ccc(F)cc2)c2ccc(F)cc2)CCN1c1cc(=O)n(C)c2ccc(C#N)nc12` : 3.62
